So I've got a bunch of sequences here, and I need their apparent KD of K4 kissing-loop reporter values.
Test system: K4 kissing-loop RNA reporter;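 also: bound reporter read as fluorescence of individual clusters on recovered sequencing chips by microscopy, with normalized cluster intensities fitted with a binding model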
assay summary: apparent KD of K4 kissing-loop reporter; higher = weaker reporter binding
reported conditions: Eterna round: R107; input ligand: arginine 13.2 mM
Numbers only, in nM.

Below are worked cases with known answers.
UGAUAGGACAGAAGGAGCGGUAGUGAUGUUACCAAAAGGGUAAGGUGUCAAAAGACACCCUGCCAGGUAGGUCGCUGUCCUAUCU; 89.9
GGAUAGGAUAGAGGAUAUGGCUUACGCAGAAAUAACUUAUUGUGUAAAUCCAUAGGGAGUGAUGUUCCAGAAGGCUGUCCUAUCG [MatMod 17 - Jieux - Exclusion - FMN B]; 212

Fill in apparent KD of K4 kissing-loop reporter for each of the 2 sequences listed.
1. UUGGAGUGAUGUUCCAUAUCUUGAGCCGAAGGAGCGGCAUUAUUGCCAGGUAGGUCGCGGCAGAAGGUACCAGUGAUGUUGGAAA [Same State Arginine A GF 4]
2. GAGGAUUGAACGGCCGCCACUGCGCGCAGCUGCAAUCGAGUGAUGUUCCAUCAGUUGUCCAGUUCCAGGACCGGGUUCCGAUGCC [theeternabot_exclusion_KL_Trp_B_12]

# output
138
245

Fill in apparent KD of K4 kissing-loop reporter for each of the 2 sequences listed.
1. UACUAUAGUGAUGUUAUAGAUAAACCAGAUACCAGUGUAACAUAACACCCUUGGCAGCUGAUGAGGGAAGUUAUCAAAAGAUAAC [AstroSTH-A#10designED4.80]
2. AUGCUGUCGGCGUUAAAGUAGUAAUGUGAUACCAGAAAUGCUGUGUUCCCUUGGCAGCACAUUCUUACAGACAGUGAUGUUGUCU [theeternabot_exclusion_KL_Theo_A_8]

# output
1. 190
2. 315
